The origin of these recorded values is patent US6001988.

Biological target: T1, P-selectin (PS-Rg) (Homo sapiens, UniProt P16109 P16109:42-321)
T1 chain: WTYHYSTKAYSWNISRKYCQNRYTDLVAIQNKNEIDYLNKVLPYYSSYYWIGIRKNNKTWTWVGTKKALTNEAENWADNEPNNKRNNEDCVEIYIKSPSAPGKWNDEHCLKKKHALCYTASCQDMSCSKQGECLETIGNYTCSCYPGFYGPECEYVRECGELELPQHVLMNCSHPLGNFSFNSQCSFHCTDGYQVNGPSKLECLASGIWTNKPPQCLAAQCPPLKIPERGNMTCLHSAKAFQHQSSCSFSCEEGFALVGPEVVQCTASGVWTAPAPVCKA
Test: filter; room temp, Ca/Mg buffer
Conditions: tags: lectin, EGF and first two CRD domains fused to human IgG1 Fc (provided by A. Varki); chain copies: 2 (dimeric Fc chimera, inferred)
Listed here are binders together with their documented Kd.

[
  {
    "binder": "230 (ssDNA) DNA: CTACCTACGATCTGACTAGCTGCACACCTGAGGGTTACAAGGCGCTAGACGTAACCTCTCGCTTACTCTCATGTAGTTCC",
    "Kd / µM": 0.6
  },
  {
    "binder": "111 (ssDNA) DNA: CTACCTACGATCTGACTAGCTACACAAGGTGCTAAACGTAGAGCCAGATCGGATCTGAGCGCTTACTCTCATGTAGTTCC",
    "Kd / µM": 0.84
  },
  {
    "binder": "206 (ssDNA) DNA: CTACCTACGATCTGACTAGCAGCGTTGTACGGGGTTACACACAACGATTTAGATGCTCTGCTTACTCTCATGTAGTTCC",
    "Kd / µM": 0.6
  }
]
